# Tested System: Hexose transporter 1 (Plasmodium falciparum) (UniProt O97467)
# Experiment Summary: ST_JUDE_LEISH: Cytotoxicity at 2uM final concentration against transgenic Leishmania Mexicana promastigotes LmPfHT that are glucose transport deficient and complemented with the Plasmodium falciparum hexose transporter. Activity is measured by DNA content using SYBR green in vitro
# Type: functional
Assay Endpoint: inhibition (%)
Please reply with the bare figure in % and do not write the unit itself.

Sample records with inhibition:
                                   molecule  value_observed
0  COC(=O)c1ccc(CC(C)NCC(O)c2cccc(C(F)(F)F)c2)c(OC)c1 (centres undefined)            5.12
1  COCCNCc1cccc(-c2ccc(CN(C(=O)Nc3ccccc3)C3CCN(Cc4ccccc4)CC3)cc2)c1             0.8
2  O=C(/C=C/c1ccc(Cl)c(Cl)c1)NC1CCC(CN2CCC(c3c[nH]c4ccccc34)CC2)CC1 (centres undefined)             1.2
3  Cc1ccc(CC(C)NCC(O)c2cccc(Cl)c2)cc1F (centres undefined)            9.76

Prompt: Which measured inhibition value corresponds to O=C(/C=C/c1ccc(Cl)c(Cl)c1)N(Cc1ccccc1)C1CCC(CN2CCC(c3c[nH]c4ccccc34)CC2)CC1 (centres undefined) ?
Completion: 2.84

Prompt: Any idea what inhibition was measured for `CC[C@H]1CN2CC[C@@H]1C[C@H]2[C@H](O)c1cc(N2CCC(CO)CC2)nc2ccc(OC)cc12` ?
Completion: 1.17

Prompt: // lookup inhibition for `Cc1cc(N)nc2cc(CNCCc3ccccc3Br)ccc12`
Completion: 0.02

Prompt: Please give the measured inhibition for this molecule: COc1ccc(CC(C)NCC(O)c2cccc(Cl)c2F)cc1 (centres undefined)
Completion: -0.19

---

# Tested System: Glucose transporter (Leishmania mexicana)
# Experiment Summary: ST_JUDE_LEISH: Cytotoxicity at 2uM final concentration against transgenic Leishmania Mexicana promastigotes LmGT2 that are glucose transport deficient and complemented with the L. Mexicana glucose transporter 2. Activity is measured by DNA content using SYBR green in vitro
# Assay type: functional
Recorded inhibition for the following compounds
// return numeric value only (unit: %, not printed)

Prompt: Which inhibition is listed for COC(=O)c1ccc(CC(C)NCC(O)c2ccc(Cl)c(Cl)c2)cc1 (stereo not given) ?
Completion: 5.96

---

# Tested System: Hexose transporter 1 (Plasmodium falciparum)
# Experiment Summary: ST_JUDE_LEISH: Cytotoxicity at 2uM final concentration against transgenic Leishmania Mexicana promastigotes LmPfHT that are glucose transport deficient and complemented with the Plasmodium falciparum hexose transporter. Activity is measured by DNA content using SYBR green in vitro
# Format: functional
Assay Endpoint: inhibition (%)
Dear colleague, please return just the value in %, with no unit written.

>>> df
                                   molecule  assay_endpoint  value_observed
0  OC(CNCc1ccccc1OC(F)F)c1cccc(C(F)(F)F)c1 (stereo not given)      inhibition            1.17

Prompt: # lookup: inhibition of `CC[C@H]1CN2CC[C@@H]1C[C@H]2[C@H](O)c1cc(N2CCC(N3CCCCC3)CC2)nc2ccc(OC)cc12`
Completion: 4.69

Prompt: What value of inhibition has been reported for the following molecule? `CC[C@H]1CN2CC[C@@H]1C[C@H]2[C@H](O)c1ccnc2ccc(Cl)cc12`
Completion: 3.95

Prompt: Quick one: inhibition of CS(=O)(=O)Nc1ccc2[nH]cc(C3CCN(CC4CCC(NC(=O)/C=C/c5ccccc5Cl)CC4)CC3)c2c1 (stereo not given) ?
Completion: 1.23

Prompt: Param item = COc1ccc(OC)c(C(O)CNC(C)C)c1 (stereo not given) ; retrieve measured inhibition.
Completion: 2.47

Source of measurements: ChEMBL document CHEMBL3433997
